Source of measurements: paper PMC3402233

# experimental details: Brain accumulation and plasma pharmacokinetics of vandetanib in FVB mice
# Assay type: in vivo, male FVB wild type mice
# run conditions: male, FVB, mouse, brain, iv, 5 mg/kg
test readout: AUC(0-t) (ng·h/mL)
# unit: ng·h/mL | format: bare number

[Q] # lookup: AUC(0-t) of COc1cc2c(Nc3ccc(Br)cc3F)ncnc2cc1OCC1CCN(C)CC1
[A] 1050

----------
# tested target: Bcrp1 (Mus musculus, UniProt Q7TMS5)
# Sequence (Q7TMS5 whole entry): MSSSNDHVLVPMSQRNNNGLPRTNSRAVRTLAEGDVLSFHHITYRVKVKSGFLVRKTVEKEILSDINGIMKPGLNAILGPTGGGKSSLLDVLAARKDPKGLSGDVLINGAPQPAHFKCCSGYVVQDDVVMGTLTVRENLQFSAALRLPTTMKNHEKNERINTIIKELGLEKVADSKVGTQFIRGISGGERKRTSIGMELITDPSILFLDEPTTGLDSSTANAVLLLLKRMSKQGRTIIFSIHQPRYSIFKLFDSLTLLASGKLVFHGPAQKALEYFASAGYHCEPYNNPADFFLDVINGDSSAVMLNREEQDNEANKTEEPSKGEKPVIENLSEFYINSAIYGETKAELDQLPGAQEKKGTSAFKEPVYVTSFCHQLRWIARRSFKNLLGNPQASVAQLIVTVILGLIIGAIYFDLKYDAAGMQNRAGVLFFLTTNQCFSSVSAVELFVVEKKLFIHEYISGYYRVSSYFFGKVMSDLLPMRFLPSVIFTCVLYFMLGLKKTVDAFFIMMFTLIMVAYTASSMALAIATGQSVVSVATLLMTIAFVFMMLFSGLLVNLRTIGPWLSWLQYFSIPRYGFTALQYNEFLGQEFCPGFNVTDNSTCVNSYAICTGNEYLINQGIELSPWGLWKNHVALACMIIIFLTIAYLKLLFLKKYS
# experimental details: Bi-directional transport across MDCKII-Bcrp1 cell monolayers
# Type: in vitro ADME, murine
test readout: Papp A→B at 240 min, 5 μM

[Q] # lookup: Papp A→B at 240 min, 5 μM of COc1cc2c(Nc3ccc(Br)cc3F)ncnc2cc1OCC1CCN(C)CC1
[A] 5.66 ×10⁻⁶ cm/s

----------
# experimental details: Bi-directional transport across MDCKII-WT cell monolayers
# Type: in vitro ADME, canine
# run conditions: dog, MDCK
test readout: Papp B→A at 240 min, 5 μM (×10⁻⁶ cm/s)
# unit: ×10⁻⁶ cm/s | format: bare number

[Q] # lookup: Papp B→A at 240 min, 5 μM of COc1cc2c(Nc3ccc(Br)cc3F)ncnc2cc1OCC1CCN(C)CC1
[A] 8.08
